Data provenance: patent US20030068675

Biological target: T1, ZFP SBS#1184 (synthetic)
T1 chain: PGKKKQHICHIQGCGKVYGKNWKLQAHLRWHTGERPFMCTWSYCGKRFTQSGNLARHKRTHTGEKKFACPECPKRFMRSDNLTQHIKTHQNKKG
Assay: EMSA
Conditions: tags: MBP fusion

{"binder": "AAGGAAAGA (dsDNA) DNA 1: AAGGAAAGA DNA 2: TCTTTCCTT", "Kd, nM": 2.79}
